TARGET: MAGL (Homo sapiens, UniProt Q99685)
Sequence (Q99685 1-303): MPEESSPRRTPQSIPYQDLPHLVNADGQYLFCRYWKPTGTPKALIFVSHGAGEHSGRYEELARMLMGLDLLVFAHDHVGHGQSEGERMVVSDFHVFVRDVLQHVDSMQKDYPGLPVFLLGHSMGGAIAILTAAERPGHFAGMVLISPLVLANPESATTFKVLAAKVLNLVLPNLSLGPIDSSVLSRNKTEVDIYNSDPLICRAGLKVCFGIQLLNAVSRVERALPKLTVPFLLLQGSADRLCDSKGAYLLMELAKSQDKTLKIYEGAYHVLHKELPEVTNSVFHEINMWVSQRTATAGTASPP
MEASUREMENT PROTOCOL: 2-AG assay: MAGL inhibitory activity by hydrolysis of 2-arachidonoylglycerol to arachidonic acid, followed by mass spectrometry
Assay type: biochemical
CONDITION NOTES: 15 min preincubation, 30 min reaction at RT, 8 μM 2-arachidonoylglycerol
Sorting guide: entries reporting IC50 beneath 20 nM go in the yes pile, the rest go in the no pile.

- COMPOUND: "O=C1NC2(CO1)CN(C(=O)N1CC3(CC(Cc4ccc(C(F)(F)F)cn4)C3)C1)C2 [Example 354]"
  TARGET: "MAGL (Homo sapiens, UniProt Q99685)"
  CAT: "yes"
- COMPOUND: "O=C1NC2(CO1)CN(C(=O)N1CC3(CCC(Cc4ccc(C(F)(F)F)nc4)C3)C1)C2 (stereo not shown) [Example 110]"
  TARGET: "MAGL (Homo sapiens, UniProt Q99685)"
  CAT: "yes"
- COMPOUND: "Cc1cc(C(F)F)n(CC2CC3(C2)CN(C(=O)N2CC4(COCC(=O)N4)C2)C3)n1 [Example 364]"
  TARGET: "MAGL (Homo sapiens, UniProt Q99685)"
  CAT: "no"
- COMPOUND: "NC(=O)c1cc(CC2CC3(C2)CN(C(=O)N2CC4(COC(=O)N4)C2)C3)ccc1OC(F)(F)F [Example 245]"
  TARGET: "MAGL (Homo sapiens, UniProt Q99685)"
  CAT: "yes"
- COMPOUND: "O=C1COCC2(CN(C(=O)N3CC4(CC(Cc5ccc(S(=O)(=O)C(F)(F)F)cn5)C4)C3)C2)N1 [Example 264]"
  TARGET: "MAGL (Homo sapiens, UniProt Q99685)"
  CAT: "yes"
- COMPOUND: "O=C1COCC2(CN(C(=O)N3CC4(CC(Cc5cc(C(F)(F)F)ccn5)C4)C3)C2)N1 [Example 178]"
  TARGET: "MAGL (Homo sapiens, UniProt Q99685)"
  CAT: "yes"
- COMPOUND: "O=C1NC2(CO1)CN(C(=O)N1CC3(CCN(Cc4ccc(C(F)(F)F)cc4F)CC3)C1)C2 [Example 135]"
  TARGET: "MAGL (Homo sapiens, UniProt Q99685)"
  CAT: "yes"
- COMPOUND: "O=C1CCC2(CN(C(=O)N3CC4(CC(Oc5nc(C(F)(F)F)cs5)C4)C3)C2)N1 [Example 308]"
  TARGET: "MAGL (Homo sapiens, UniProt Q99685)"
  CAT: "no"
- COMPOUND: "O=C1NC2(CO1)CN(C(=O)N1CC3(CCN(Cc4ccc(C(F)(F)F)nc4)CC3)C1)C2 [Example 151]"
  TARGET: "MAGL (Homo sapiens, UniProt Q99685)"
  CAT: "no"
- COMPOUND: "CS(=O)(=O)c1cc(F)cc(CC2CC3(C2)CN(C(=O)N2CC4(CCC(=O)N4)C2)C3)c1 [Example 10]"
  TARGET: "MAGL (Homo sapiens, UniProt Q99685)"
  CAT: "no"
- COMPOUND: "N#Cc1cc(CC2CC3(C2)CN(C(=O)N2CC4(COC(=O)N4)C2)C3)ccc1C(F)(F)F [Example 18]"
  TARGET: "MAGL (Homo sapiens, UniProt Q99685)"
  CAT: "yes"
- COMPOUND: "O=C1NC2(CO1)CN(C(=O)N1CC3(CCN(Cc4ccc(S(=O)(=O)C(F)(F)F)cc4)CC3)C1)C2 [Example 84]"
  TARGET: "MAGL (Homo sapiens, UniProt Q99685)"
  CAT: "yes"
- COMPOUND: "O=C1CCC2(CN(C(=O)N3CC4(CCN(Cc5ccc(C(F)(F)F)cn5)CC4)C3)C2)N1 [Example 146]"
  TARGET: "MAGL (Homo sapiens, UniProt Q99685)"
  CAT: "yes"
- COMPOUND: "O=C1CCC2(CN(C(=O)N3CC4(CC(Cc5cnn(C(F)(F)F)c5)C4)C3)C2)N1 [Example 216]"
  TARGET: "MAGL (Homo sapiens, UniProt Q99685)"
  CAT: "yes"
- COMPOUND: "N=S(=O)(c1ccc(CC2CC3(C2)CN(C(=O)N2CC4(CCC(=O)N4)C2)C3)c(F)c1)C(F)(F)F (stereo not shown) [Example 265]"
  TARGET: "MAGL (Homo sapiens, UniProt Q99685)"
  CAT: "yes"
- COMPOUND: "O=C1CCC2(CN(C(=O)N3CC4(CN(Cc5snnc5C5CCC5)C4)C3)C2)N1 [Example 334]"
  TARGET: "MAGL (Homo sapiens, UniProt Q99685)"
  CAT: "no"
- COMPOUND: "O=C1COCC2(CN(C(=O)N3CC4(CC(Cc5nc(C(F)(F)F)ns5)C4)C3)C2)N1 [Example 363]"
  TARGET: "MAGL (Homo sapiens, UniProt Q99685)"
  CAT: "no"
- COMPOUND: "O=C1CCC2(CN(C(=O)N3CC4(CCN(Cc5ccc(C(F)(F)F)nc5)CC4)C3)C2)N1 [Example 148]"
  TARGET: "MAGL (Homo sapiens, UniProt Q99685)"
  CAT: "no"
- COMPOUND: "Cn1nc(C(F)(F)F)cc1CN1CCC2(CC1)CN(C(=O)N1CC3(CCC(=O)N3)C1)C2 [Example 337]"
  TARGET: "MAGL (Homo sapiens, UniProt Q99685)"
  CAT: "no"
- COMPOUND: "O=C1COCC2(CN(C(=O)N3CC4(CC(Cc5nc(C(F)(F)F)cs5)C4)C3)C2)N1 [Example 369]"
  TARGET: "MAGL (Homo sapiens, UniProt Q99685)"
  CAT: "no"
- COMPOUND: "O=C1NC2(CO1)CN(C(=O)N1CC3(CCN(Cc4ccc(C(F)(F)F)cn4)CC3)C1)C2 [Example 149]"
  TARGET: "MAGL (Homo sapiens, UniProt Q99685)"
  CAT: "yes"
- COMPOUND: "NC(=O)c1ccc(CC2CC3(C2)CN(C(=O)N2CC4(COC(=O)N4)C2)C3)cc1OC(F)(F)F [Example 244]"
  TARGET: "MAGL (Homo sapiens, UniProt Q99685)"
  CAT: "yes"
- COMPOUND: "O=C1NC2(CCO1)CN(C(=O)N1CC3(CCC(OCC4(C(F)(F)F)CC4)CC3)C1)C2 [Example 130]"
  TARGET: "MAGL (Homo sapiens, UniProt Q99685)"
  CAT: "no"
- COMPOUND: "O=C1CCC2(CN(C(=O)N3CC4(CCN(Cc5ccc(C(F)(F)F)cc5F)CC4)C3)C2)N1 [Example 132]"
  TARGET: "MAGL (Homo sapiens, UniProt Q99685)"
  CAT: "yes"
- COMPOUND: "N=S(=O)(c1cc(F)cc(CC2CC3(C2)CN(C(=O)N2CC4(COCC(=O)N4)C2)C3)c1)C(F)(F)F (stereo not shown) [Example 322]"
  TARGET: "MAGL (Homo sapiens, UniProt Q99685)"
  CAT: "yes"
- COMPOUND: "O=C1NC2(CO1)CN(C(=O)N1CC3(CC(Cc4ccc(OC(F)(F)F)cn4)C3)C1)C2 [Example 26]"
  TARGET: "MAGL (Homo sapiens, UniProt Q99685)"
  CAT: "yes"
- COMPOUND: "O=C1NCC2(CN(C(=O)N3CC4(CCC(Cc5ccc(C(F)(F)F)cn5)CC4)C3)C2)N1 [Example 45]"
  TARGET: "MAGL (Homo sapiens, UniProt Q99685)"
  CAT: "no"
- COMPOUND: "N#Cc1cc(C(F)(F)F)ncc1CC1CCC2(C1)CN(C(=O)N1CC3(COC(=O)N3)C1)C2 (stereo not shown) [Example 210]"
  TARGET: "MAGL (Homo sapiens, UniProt Q99685)"
  CAT: "yes"
- COMPOUND: "O=C1CCC2(CN(C(=O)N3CC4(CCC(NS(=O)(=O)c5cccc(OC(F)(F)F)c5)CC4)C3)C2)N1 [Example 116]"
  TARGET: "MAGL (Homo sapiens, UniProt Q99685)"
  CAT: "yes"
- COMPOUND: "O=C1NC2(CO1)CN(C(=O)N1CC3(CC(NS(=O)(=O)c4cccc(C(F)(F)F)c4)C3)C1)C2 [Example 50]"
  TARGET: "MAGL (Homo sapiens, UniProt Q99685)"
  CAT: "yes"
- COMPOUND: "N=S(=O)(c1ccc(OC2CC3(C2)CN(C(=O)N2CC4(CCC(=O)N4)C2)C3)cc1)C(F)(F)F (stereo not shown) [Example 335]"
  TARGET: "MAGL (Homo sapiens, UniProt Q99685)"
  CAT: "no"

Values were extracted from patent US20240383904A1.
